# testSystem: Mothers against decapentaplegic homolog 3 (Homo sapiens, UniProt P84022)
# Sequence (P84022 whole entry): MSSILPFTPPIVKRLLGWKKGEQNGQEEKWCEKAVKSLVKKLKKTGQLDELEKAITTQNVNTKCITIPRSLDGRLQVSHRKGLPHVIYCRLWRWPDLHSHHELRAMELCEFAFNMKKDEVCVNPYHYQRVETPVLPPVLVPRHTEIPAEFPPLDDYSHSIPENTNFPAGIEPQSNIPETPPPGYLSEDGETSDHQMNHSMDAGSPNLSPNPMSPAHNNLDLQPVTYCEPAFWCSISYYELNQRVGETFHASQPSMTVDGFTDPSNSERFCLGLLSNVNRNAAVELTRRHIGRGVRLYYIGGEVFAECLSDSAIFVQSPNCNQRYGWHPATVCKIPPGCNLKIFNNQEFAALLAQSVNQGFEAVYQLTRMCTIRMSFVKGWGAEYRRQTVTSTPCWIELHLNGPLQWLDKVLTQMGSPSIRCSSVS
# experimentSummary: blockers of Smad3 complex formation in lysate – cell lysate, secondary confirmation, chemiluminescent ELISA, HEK293 lysate, dose response (AID 1058)
pIC50: −log10 of the molar value.

compound	pIC50
COC(=O)c1ccccc1C1c2ccc(O)c(O)c2OC2C(=O)C(=O)C=CC21 (stereo unspecified)	< 4.30

Every entry's value here was drawn from BindingDB's records for doi:10.7270/Q21R6NZ6.
